All values here come from patent US8802597B2.

# Tested on: corn (Zea mays)
# METHOD NOTES: Test B pre/postemergence
# Type: in vivo
# APPLIED CONDITIONS: Zea mays, post-emergence, Postemergence, 125 g ai/ha; scale 0 to 100 (0 no effect, 100 complete control); read-out: Corn plant response rating
# Description: […] At the same time, plants selected from these crop and weed species and also blackgrass (Alopecurus myosuroides) and wild oat (Avena fatua) were treated with postemergence applications of test chemicals formulated in the same manner. […] Treated plants and controls were maintained in a greenhouse for 13 to 15 days, after which time all species were compared to controls and visually evaluated. […]
ENDPOINT LABEL: plant injury at 125 g/ha (%)
The response must be a number in % with no trailing unit.

>>> readout_number("Nc1nc(C2CC2)nc(C=O)c1F")
0
>>> readout_number("COC(=O)c1nc(C2CC2)nc(N)c1Cl")
70
>>> readout_number("CCOC(=O)c1nc(C2CC2)nc(N)c1F")
0
>>> readout_number("CCOC(=O)c1nc(-c2ccccc2)nc(N)c1Br")
0

Please examine the following record next.
Input line: For the molecule shown here, `CCOC(=O)c1nc(C2CC2)nc(NN)c1Br` , give the reported plant injury at 125 g/ha.
Output line: 0

----------
# Tested on: pitted morningglory (Ipomoea lacunosa)
# METHOD NOTES: Test G pre/postemergence
# Type: in vivo
# APPLIED CONDITIONS: Preemergence, 62 g ai/ha, scale 0-100
ENDPOINT LABEL: Plant response rating, Morningglory

Input line: Look at this compound and give its reported Plant response rating, Morningglory. `CCOC(=O)c1nc(C2CC2)nc(N)c1Br`
Output line: 95

Input line: Look up Plant response rating, Morningglory: `COC(=O)c1nc(C2CC2)nc(N)c1Cl`
Output line: 70

Input line: Query: Plant response rating, Morningglory; subject: `Nc1nc(C2CC2)nc(C(=O)[O-])c1Cl.[Na+]`
Output line: 100

Input line: Which Plant response rating, Morningglory reading was recorded for the compound `Nc1nc(C2CC2)nc(C(=O)OCc2ccccc2)c1Br` ?
Output line: 60

----------
# Test system: velvetleaf (Abutilon theophrasti)
# METHOD NOTES: Test B pre/postemergence
# Type: in vivo
# APPLIED CONDITIONS: Abutilon theophrasti, pre-emergence, Preemergence, 125 g ai/ha; scale 0 to 100 (0 no effect, 100 complete control); read-out: Plant response rating, Velvetleaf
# Protocol: […] At the same time, plants selected from these crop and weed species and also blackgrass (Alopecurus myosuroides) and wild oat (Avena fatua) were treated with postemergence applications of test chemicals formulated in the same manner. […] Treated plants and controls were maintained in a greenhouse for 13 to 15 days, after which time all species were compared to controls and visually evaluated. […]
Exam item: assign condition met to entries whose pest or weed control at 125 g/ha is below 50% and condition not met to entries at or above 50%. Note that a value of exactly 50% receives condition not met.

>>> classification("Nc1nc(C2CC2)nc(CO)c1Br [Compound 21]")
"condition met"
>>> classification("CNc1nc(C2CC2)nc(C(=O)OC)c1Cl [Compound 79]")
"condition not met"
>>> classification("COC(=O)c1nc(C(C)C)nc(N)c1Br [Compound 3]")
"condition met"
>>> classification("COC(=O)c1nc(C2CC2)nc(N)c1Br [Compound 2]")
"condition not met"

Turning now to a further compound:
Input line: Quick check: pest or weed control at 125 g/ha of CNc1nc(C2CC2)nc(C(=O)OC)c1Br [Compound 5] under 50%?
Output line: condition not met

----------
Parameter: Pigweed plant response rating. Scope: all listed entries.
# Test system: pigweed (Amaranthus retroflexus)
# METHOD NOTES: Test B pre/postemergence
# Assay type: in vivo
# APPLIED CONDITIONS: Postemergence, 125 g ai/ha; scale 0 to 100 (0 no effect, 100 complete control)
Please respond with just the number, no unit label.

The cases that follow already have their Pigweed plant response rating on record.
>>> readout_number("CCOC(=O)c1nc(-c2ccc(I)cc2)nc(N)c1Cl [Compound 133]")
100
>>> readout_number("Nc1nc(-c2ccc(Cl)cc2)nc(C(=O)[O-])c1Cl.[Na+] [Compound 117]")
100
>>> readout_number("CCOC(=O)c1nc(C2CC2)nc(NOC(C)(C)C)c1Br [Compound 55]")
70
>>> readout_number("COC(OC)c1nc(C2CC2)nc(N)c1F [Compound 46]")
70
>>> readout_number("CCOC(=O)c1nc(C2CC2)nc(NOC)c1Br [Compound 52]")
60

Input line: Item: CC(=O)NN=Cc1nc(C2CC2)nc(N)c1Br [Compound 51] Test system: pigweed (Amaranthus retroflexus) Read-out: Pigweed plant response rating Value: ?
Output line: 80

----------
# Test system: lambsquarters (Chenopodium album)
# METHOD NOTES: Test D pre/postemergence
# Assay type: in vivo
# APPLIED CONDITIONS: Postemergence, 62 g ai/ha, scale 0 to 100 (100 = complete control)
ENDPOINT LABEL: Plant response rating, Lambsquarters
Give your answer as a number; write no unit.

These recorded examples may help you get a feel for the data.
>>> readout_number("CCOC(=O)c1nc(C2CC2)nc(N)c1Cl")
100
>>> readout_number("COC(=O)c1nc(-c2ccc(Cl)cc2)nc(N)c1Cl")
80
>>> readout_number("COC(=O)c1nc(C2CC2)nc(N)c1Cl")
100
>>> readout_number("CCOC(=O)C(OC(C)=O)c1nc(C2CC2)nc(N)c1Br (stereo not drawn)")
35
>>> readout_number("COC(=O)c1nc(C2CC2)nc(N)c1Br")
100

Input line: What Plant response rating, Lambsquarters value was documented for this molecule, COC(=O)c1nc(C2CC2C)nc(N)c1Br (stereo not drawn) ?
Output line: 65

----------
# System: pigweed (Amaranthus retroflexus)
# METHOD NOTES: Test B pre/postemergence
# Type: in vivo
# APPLIED CONDITIONS: Amaranthus retroflexus, post-emergence, Postemergence, 125 g ai/ha; scale 0 to 100 (0 no effect, 100 complete control); read-out: Pigweed plant response rating
pest or weed control at 125 g/ha less than 90% is 1; pest or weed control at 125 g/ha greater than or equal to 90% is 0.

Recorded results for 5 molecules are shown here.
>>> classification("COC(=O)c1nc(C2CC2)nc(N)c1Br [Compound 2]")
0
>>> classification("COC(=O)c1nc(C2CC2)nc(N)c1I [Compound 7]")
1
>>> classification("Nc1nc(-c2ccc(Br)cc2)nc(C(=O)O)c1Cl [Compound 95]")
0
>>> classification("Nc1nc(C2CC2)nc(C=O)c1F [Compound 24]")
1
>>> classification("CCOC(=O)c1nc(C2CC2)nc(NN)c1Br [Compound 42]")
1

Input line: Dear reviewer, please state whether Nc1nc(C2CC2)nc(C(=O)[O-])c1Cl.[Na+] [Compound 77, monosodium salt] has pest or weed control at 125 g/ha strictly beneath 90%.
Output line: 0

Input line: Here's an entry: COC(=O)c1nc(C2CC2)nc(N)c1Cl [Compound 9] . Is its pest or weed control at 125 g/ha below 90%?
Output line: 0

----------
# Tested on: common ragweed (Ambrosia elatior)
# METHOD NOTES: Test C pre/postemergence
# Type: in vivo
# APPLIED CONDITIONS: Postemergence, 125 g ai/ha; scale 0 to 100 (0 no effect, 100 complete control)
# Text: […]
ENDPOINT LABEL: Ragweed plant response rating
Reply with the value as a number alone.

>>> readout_number("Nc1nc(C2CC2)nc(C=NO)c1Br [Compound 27]")
20

Input line: Requested read-out: Ragweed plant response rating. Entry: COC(=O)c1nc(C2CC2C)nc(N)c1Br (centres unmarked) [Compound 28]
Output line: 80

Input line: Would you mind telling me what Ragweed plant response rating value was observed for CCOC(=O)C(OC(C)=O)c1nc(C2CC2)nc(N)c1Br (centres unmarked) [Compound 47] ?
Output line: 80

Input line: Quick one: Ragweed plant response rating of CCOC(=O)c1nc(-c2ccc(I)cc2)nc(N)c1Cl [Compound 133] ?
Output line: 95

Input line: Consider the compound shown here: CCCCOC(=O)c1nc(C2CC2)nc(N)c1Br [Compound 16] What is its recorded Ragweed plant response rating?
Output line: 95

----------
# System: woolly cupgrass (Eriochloa villosa)
# METHOD NOTES: Test C pre/postemergence
# Type: in vivo
# APPLIED CONDITIONS: Eriochloa villosa, post-emergence; Postemergence, 125 g ai/ha; scale 0 to 100 (0 no effect, 100 complete control); read-out: Cupgrass, Woolly plant response rating
Note to self: values exactly at 70% are satisfied. So pest or weed control at 125 g/ha at or above 70% is satisfied, below is not satisfied.

>>> classification("CCOC(=O)c1nc(-c2ccc(Cl)cc2)nc(N)c1Cl [Compound 64]")
"not satisfied"
>>> classification("Nc1nc(C2CC2)nc(C(=O)O)c1Br [Compound 8]")
"not satisfied"
>>> classification("Nc1nc(C2CC2)nc(C(=O)O)c1Cl [Compound 135]")
"satisfied"
>>> classification("Nc1nc(-c2ccc(Cl)cc2)nc(C(=O)O)c1Cl [Compound 65]")
"satisfied"

Now take the following compound into account.
Input line: Is pest or weed control at 125 g/ha for COC(=O)c1nc(C2CC2)nc(N)c1F [Compound 25] at or above 70%?
Output line: not satisfied
